- System: 994946-033-R-J1-PDC complex spheroid viability;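 also: spheroids exposed to drugs for 7 days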
- Protocol text: Anticancer human tumor 994946-033-R-J1-PDC patient-derived melanoma cell line growth inhibition [POLQ]; active = viability on the fitted dose curve at most 10% of control; inactive = the rest
- Study conditions: second compound 10 µM; first compound 3.16 µM
Labels: TRUE (active), FALSE (inactive)

molecule="CC1COCCN1c1cc(C2(S(C)(=N)=O)CC2)nc(-c2ccnc3[nH]ccc23)n1 (stereo unspecified) + COC1C(OC(N)=O)C(O)C(Oc2ccc3c(O)c(NC(=O)c4ccc(O)c(CC=C(C)C)c4)c(=O)oc3c2C)OC1(C)C" assayed_system="994946-033-R-J1-PDC complex spheroid viability" category=FALSE
molecule="C=CC(=O)N1CCN(c2nc(=O)n(-c3c(C)ccnc3C(C)C)c3nc(-c4c(O)cccc4F)c(F)cc23)C(C)C1 (stereo unspecified) + Cc1cccc(N(C)C(=O)C2C(O)CCN2c2nc(C)cc(C(F)(F)F)c2C#N)c1" assayed_system="994946-033-R-J1-PDC complex spheroid viability" category=FALSE
molecule="COc1cc2cc(C(=O)CCC(=O)O)sc2cc1OC + Cc1cccc(N(C)C(=O)C2C(O)CCN2c2nc(C)cc(C(F)(F)F)c2C#N)c1" assayed_system="994946-033-R-J1-PDC complex spheroid viability" category=FALSE
molecule="CC1COCCN1c1cc(C2(O)CC3CCC(C2)O3)c2cnn(-c3ccn[nH]3)c2n1 (stereo unspecified) + Cc1cccc(N(C)C(=O)C2C(O)CCN2c2nc(C)cc(C(F)(F)F)c2C#N)c1" assayed_system="994946-033-R-J1-PDC complex spheroid viability" category=FALSE
molecule="CC1COCCN1c1cc(C2(S(C)(=N)=O)CC2)nc(-c2ccnc3[nH]ccc23)n1 (stereo unspecified) + Cc1cccc(N(C)C(=O)C2C(O)CCN2c2nc(C)cc(C(F)(F)F)c2C#N)c1" assayed_system="994946-033-R-J1-PDC complex spheroid viability" category=FALSE
molecule="CCc1cc2c(N3CCc4c(cc(Cn5ccnc5)cc4-c4cn(C)nc4C(F)(F)F)C3=O)cc(C)nc2c(OC)n1 + Cc1cccc(N(C)C(=O)C2C(O)CCN2c2nc(C)cc(C(F)(F)F)c2C#N)c1" assayed_system="994946-033-R-J1-PDC complex spheroid viability" category=FALSE
molecule="CCc1cc2c(N3CCc4c(cc(Cn5ccnc5)cc4-c4cn(C)nc4C(F)(F)F)C3=O)cc(C)nc2c(OC)n1 + Nc1ccc(C#CCN(C(=O)Cc2ncc(C(F)(F)F)cc2C(F)(F)F)c2ccc(F)cc2)nn1" assayed_system="994946-033-R-J1-PDC complex spheroid viability" category=FALSE
molecule="COc1cccc2c1C(=O)c1c(O)c3c(c(O)c1C2=O)CC(O)(C(=O)CO)CC3OC1CC(N)C(O)C(C)O1 (stereo unspecified) + Cc1cccc(N(C)C(=O)C2C(O)CCN2c2nc(C)cc(C(F)(F)F)c2C#N)c1" assayed_system="994946-033-R-J1-PDC complex spheroid viability" category=TRUE
molecule="COc1cccc2c1C(=O)c1c(O)c3c(c(O)c1C2=O)CC(O)(C(=O)CO)CC3OC1CC(N)C(O)C(C)O1 (stereo unspecified) + COC1C(OC(N)=O)C(O)C(Oc2ccc3c(O)c(NC(=O)c4ccc(O)c(CC=C(C)C)c4)c(=O)oc3c2C)OC1(C)C" assayed_system="994946-033-R-J1-PDC complex spheroid viability" category=TRUE
molecule="CC1COCCN1c1cc(C2(O)CC3CCC(C2)O3)c2cnn(-c3ccn[nH]3)c2n1 (stereo unspecified) + Nc1ccc(C#CCN(C(=O)Cc2ncc(C(F)(F)F)cc2C(F)(F)F)c2ccc(F)cc2)nn1" assayed_system="994946-033-R-J1-PDC complex spheroid viability" category=FALSE
molecule="Nc1ccn(C2OC(CO)C(O)C2(F)F)c(=O)n1 (stereo unspecified) + COC1C(OC(N)=O)C(O)C(Oc2ccc3c(O)c(NC(=O)c4ccc(O)c(CC=C(C)C)c4)c(=O)oc3c2C)OC1(C)C" assayed_system="994946-033-R-J1-PDC complex spheroid viability" category=TRUE
molecule="CCc1cc2c(N3CCc4c(cc(Cn5ccnc5)cc4-c4cn(C)nc4C(F)(F)F)C3=O)ccnc2c(OC)n1 + COC1C(OC(N)=O)C(O)C(Oc2ccc3c(O)c(NC(=O)c4ccc(O)c(CC=C(C)C)c4)c(=O)oc3c2C)OC1(C)C" assayed_system="994946-033-R-J1-PDC complex spheroid viability" category=FALSE
molecule="COc1cc2cc(C(=O)CCC(=O)O)sc2cc1OC + COC1C(OC(N)=O)C(O)C(Oc2ccc3c(O)c(NC(=O)c4ccc(O)c(CC=C(C)C)c4)c(=O)oc3c2C)OC1(C)C" assayed_system="994946-033-R-J1-PDC complex spheroid viability" category=FALSE
molecule="COc1ccc([C@@H](O)c2cc(-c3ncnc4cc(N5CCOCC5)ccc34)c(F)cc2Cl)nn1 + Cc1cccc(N(C)C(=O)C2C(O)CCN2c2nc(C)cc(C(F)(F)F)c2C#N)c1" assayed_system="994946-033-R-J1-PDC complex spheroid viability" category=FALSE
molecule="Nc1ccn(C2OC(CO)C(O)C2(F)F)c(=O)n1 (stereo unspecified) + Nc1ccc(C#CCN(C(=O)Cc2ncc(C(F)(F)F)cc2C(F)(F)F)c2ccc(F)cc2)nn1" assayed_system="994946-033-R-J1-PDC complex spheroid viability" category=TRUE
molecule="CCc1cc2c(N3CCc4c(cc(Cn5ccnc5)cc4-c4cn(C)nc4C(F)(F)F)C3=O)cc(C)nc2c(OC)n1 + COC1C(OC(N)=O)C(O)C(Oc2ccc3c(O)c(NC(=O)c4ccc(O)c(CC=C(C)C)c4)c(=O)oc3c2C)OC1(C)C" assayed_system="994946-033-R-J1-PDC complex spheroid viability" category=FALSE
molecule="CC1COCCN1c1cc(-c2ccnn2C)c2ccnc(-c3ccn[nH]3)c2n1 (stereo unspecified) + Cc1cccc(N(C)C(=O)C2C(O)CCN2c2nc(C)cc(C(F)(F)F)c2C#N)c1" assayed_system="994946-033-R-J1-PDC complex spheroid viability" category=FALSE
molecule="CC1COCCN1c1cc(C2(S(C)(=N)=O)CC2)nc(-c2ccnc3[nH]ccc23)n1 (stereo unspecified) + Nc1ccc(C#CCN(C(=O)Cc2ncc(C(F)(F)F)cc2C(F)(F)F)c2ccc(F)cc2)nn1" assayed_system="994946-033-R-J1-PDC complex spheroid viability" category=FALSE
molecule="CC(C)n1c(=O)n(C)c2cnc3cc(F)c(-c4ccc(OCCCN5CCCCC5)nc4)cc3c21 + Cc1cccc(N(C)C(=O)C2C(O)CCN2c2nc(C)cc(C(F)(F)F)c2C#N)c1" assayed_system="994946-033-R-J1-PDC complex spheroid viability" category=FALSE
molecule="O=c1[nH]cc(F)c(=O)[nH]1 + Cc1cccc(N(C)C(=O)C2C(O)CCN2c2nc(C)cc(C(F)(F)F)c2C#N)c1" assayed_system="994946-033-R-J1-PDC complex spheroid viability" category=FALSE
molecule="CCCS(=O)(=O)Nc1ccc(F)c(C(=O)c2c[nH]c3ncc(-c4ccc(Cl)cc4)cc23)c1F + Cc1cccc(N(C)C(=O)C2C(O)CCN2c2nc(C)cc(C(F)(F)F)c2C#N)c1" assayed_system="994946-033-R-J1-PDC complex spheroid viability" category=FALSE
